test system: MCF-7 breast cancer cell line; assay: MTT assay against breast cancer cell line; type: cell-based; settings: Homo sapiens, MCF7; MCF-7, 100 uM, 72 hours after treatment; read-out: % Dead cells
Response field label: string, one of yes (1) (cytotoxicity at 100 µM strictly below 30%) or no (0).

Threshold test, cytotoxicity at 100 µM < 30%: CCOC(=O)CC1=C(Cc2ccc3ccccc3c2)C(=O)O/C1=N\C1CCC(C)CC1 (stereo not drawn) no (0)

# check: cytotoxicity at 100 µM < 30% for CCOC(=O)CC1=C(C(c2ccccc2)c2ccccc2)C(=O)O/C1=N\C1CCC(C)CC1 (stereo not drawn) no (0)

Find out if reported cytotoxicity at 100 µM for CCOC(=O)CC1=C(Cc2ccc(F)c(F)c2)C(=O)O/C1=N\C1CCC(C)CC1 (stereo not drawn) is less than 30% yes (1)

====

tested on: MCF-7 breast cancer cell line; assay: MTT assay against breast cancer cell line; assay type: cell-based; conditions: Homo sapiens, MCF7; MCF-7, 100 uM, 72 hours after treatment; read-out: % Dead cells
A collection of compounds and their measured cytotoxicity at 100 µM

>  <compound>
CCOC(=O)CC1=C(Cc2ccccc2F)C(=O)O/C1=N\C1CCC(C)CC1 (stereo not drawn)

>  <cytotoxicity at 100 µM>
26.6%

$$$$
>  <compound>
CCOC(=O)CC1=C(Cc2cc(OC)ccc2OC)C(=O)O/C1=N\C1CCC(C)CC1 (stereo not drawn)

>  <cytotoxicity at 100 µM>
32.9%

$$$$
>  <compound>
CCOC(=O)CC1=C(Cc2c3ccccc3cc3ccccc23)C(=O)O/C1=N\C1CCC(C)CC1 (stereo not drawn)

>  <cytotoxicity at 100 µM>
27.4%

$$$$
>  <compound>
CCOC(=O)CC1=C(Cc2cccc(C(F)(F)F)c2)C(=O)O/C1=N\C1CCC(C)CC1 (stereo not drawn)

>  <cytotoxicity at 100 µM>
49.1%

$$$$

// query cytotoxicity at 100 µM value for entry CCOC(=O)CC1=C(Cc2cccc(Oc3ccccc3)c2)C(=O)O/C1=N\C1CCC(C)CC1 (stereo not drawn) 32.9%

# query: cytotoxicity at 100 µM of entry CCOC(=O)CC1=C(Cc2ccc(Cl)cc2)C(=O)O/C1=N\C1CCC(C)CC1 (stereo not drawn) 45.3%
